// provenance: patent US20110020369A1

Molecular target: T1, human TSLPR on Ba/F3-hTSLPR-hIL7Ra cells (human, UniProt Q9HC73 23-371)
T1 sequence (looked up): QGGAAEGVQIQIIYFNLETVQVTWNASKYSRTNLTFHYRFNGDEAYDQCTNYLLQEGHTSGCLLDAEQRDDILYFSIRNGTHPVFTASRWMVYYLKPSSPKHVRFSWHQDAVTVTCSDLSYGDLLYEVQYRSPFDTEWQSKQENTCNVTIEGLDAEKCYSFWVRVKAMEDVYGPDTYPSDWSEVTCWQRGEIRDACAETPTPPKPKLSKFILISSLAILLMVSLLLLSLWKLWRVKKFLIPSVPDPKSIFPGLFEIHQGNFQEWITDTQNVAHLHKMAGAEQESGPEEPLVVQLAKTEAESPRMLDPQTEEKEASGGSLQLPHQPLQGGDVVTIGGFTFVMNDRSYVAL
Assay: cell-based or functional assay
parameter measured: IC50 Assay II, Ba/F3-huTSLPR proliferation (µg/mL)
# number only, unit µg/mL dropped from output

- binder: "mouse anti-human TSLPR antibody 70E8 (antibody, mouse IgG1, V domains shown, Mouse IgG1/kappa from hybridoma; also called m70E8; LB55.70E8.1A8) VH: DVQLQESGPDLVKPSQSLSLTCTVTNYSITSGYSWPWIRQFPGNKLEWLGYIHSSGRTNYNPSLKSRISITRDTSKNQFFLQLNSVTPEDTATYYCARSQLGLVFFAYWGQGTLVTVSA VL: DIVMTQSQKFMSTSVGDRVSVTCKASQSVGANVAWYQQIPGHSPKVLIYSASYRFSGVPDRFTGSGSGTDFTLTISNVQSEDLAEYFCQQYNSYPYTFGGGTKLEIRR"
  unit label: "µg/mL"
  measured: 0.0489
- binder: "rat anti-human TSLPR antibody 18B3 (antibody, V domains shown, Rat monoclonal antibody; also called r18B3; LB1.18B3) VH: EVQLVESGGGLVQPGRSLRLSCVASGFTFNNYWMTWVRQAPGKGLEWVASITDTSGRTYYPDSVKGRFTISRDHAKSTLYLQMNSLRPEDTATYYCTKTLGGIPRDWGQGVMVTVSS VL: NIQLTQSPSLLSASVGDRVTLSCKGSQNINNYLAWYQQKLGEAPKLLIFKTNILQTGIPLRFSGSGSGTDYTLTISSLHCEDLATYYCYQFNNGFTFGPGTKLELKR"
  unit label: "µg/mL"
  measured: 0.259

Task item: // query IC50 Assay II, Ba/F3-huTSLPR proliferation value for entry mouse antibody 54A11 (antibody, mouse IgG2a, V domains shown, Mouse IgG2a/kappa from hybridoma; also called m54A11; LB55.54A11.3D6) VH: EVQLQQSGPELVKPRASVKISCKASGYSFTGYYIHWVKQSHVKSLEWIGRINPYNGATIYNPNFKDKASLTVDKSSSTAFMEVHSLTSEDSAVYYCARSYGYVNYFDYWGQGTTLTVSS VL: EIVLTQSPATLSVTPGDSVSLSCRASQSISNNLHWYHQKSHESPRLLIKFGFQSISGIPSRFSGSGSGTDFTLSINSVETEDFGMYFCQQTNSWLTFGAGTKLELKR
Reply: 0.132
